Where do the numbers come from? From patent US8044052B2.

Molecular target: Human FAAH (Homo sapiens)
Construct: made in house
Sequence (O00519 1-579): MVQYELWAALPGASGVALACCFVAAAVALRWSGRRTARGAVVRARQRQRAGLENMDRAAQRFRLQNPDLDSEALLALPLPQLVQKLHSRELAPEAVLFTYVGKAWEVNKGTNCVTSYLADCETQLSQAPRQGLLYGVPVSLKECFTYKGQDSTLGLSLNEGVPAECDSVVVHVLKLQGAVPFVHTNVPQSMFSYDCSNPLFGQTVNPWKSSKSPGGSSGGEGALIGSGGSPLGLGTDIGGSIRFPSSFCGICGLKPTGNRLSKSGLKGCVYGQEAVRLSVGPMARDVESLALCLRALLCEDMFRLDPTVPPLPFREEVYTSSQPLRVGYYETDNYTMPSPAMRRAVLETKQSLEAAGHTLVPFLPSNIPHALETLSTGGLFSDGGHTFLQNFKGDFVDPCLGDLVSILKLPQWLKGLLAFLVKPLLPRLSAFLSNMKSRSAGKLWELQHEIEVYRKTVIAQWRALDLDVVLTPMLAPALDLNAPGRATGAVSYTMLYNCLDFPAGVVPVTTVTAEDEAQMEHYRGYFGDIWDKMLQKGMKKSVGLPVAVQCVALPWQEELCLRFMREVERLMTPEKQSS
Test: FAAH assay (glutamate dehydrogenase-coupled, oleamide substrate, absorbance at 340 nm)
Assay type: biochemical
Conditions: irreversible inhibition, 1-4 nM FAAH, pH 7.4, 30° C., 90 min, read-out: hFAAH kinact/Ki
Structures can show the parent of a compound that is named as a salt.
Recorded measurements of kinact/KI, one per entry
Value expressed in M⁻¹ s⁻¹; do not type the unit.

{"Compound": "CCc1cnc(Oc2cccc(C=C3CCN(C(=O)Nc4cccnn4)CC3)c2)nc1", "Units label": "M⁻¹ s⁻¹", "Quantitative result": 6220}
{"Compound": "COc1ccc(NC(=O)N2CCC(=Cc3cccc(Oc4ccc(C(F)(F)F)cn4)c3)CC2)c(OC)n1", "Units label": "M⁻¹ s⁻¹", "Quantitative result": 675}
{"Compound": "O=C(Nc1cccnn1)N1CCC(=Cc2cccc(Oc3nccc(C(F)(F)F)n3)c2)CC1", "Units label": "M⁻¹ s⁻¹", "Quantitative result": 584}

QUERY: Endpoint output: kinact/KI of CCc1cc(NC(=O)N2CCC(=Cc3cccc(Oc4ccc(C(F)(F)F)cn4)c3)CC2)[nH]n1 [Example 80, trifluoroacetate] . Value?
RESULT: 353

QUERY: Endpoint output: kinact/KI of Cn1ccc(NC(=O)N2CCC(=Cc3cccc(Oc4ccc(C(F)(F)F)cn4)c3)CC2)n1 . Value?
RESULT: 339

QUERY: Endpoint output: kinact/KI of O=C(Nc1cc(O)[nH]n1)N1CCC(=Cc2cccc(Oc3ccc(C(F)(F)F)cn3)c2)CC1 . Value?
RESULT: 412

QUERY: Endpoint output: kinact/KI of O=C(Nc1ccc(C(F)(F)F)nc1)N1CCC(=Cc2cccc(Oc3ccc(C(F)(F)F)cn3)c2)CC1 . Value?
RESULT: 405

====

Molecular target: Human FAAH (Homo sapiens, UniProt O00519)
Construct: made in house
Assay: FAAH assay (glutamate dehydrogenase-coupled, oleamide substrate, absorbance at 340 nm)
Format: biochemical
Conditions: irreversible inhibition, 1-4 nM FAAH, pH 7.4, 30° C., 90 min, read-out: hFAAH kinact/Ki
Decide by kinact/KI: equal to or exceeding 900 M⁻¹ s⁻¹ means Criterion met, less means Criterion not met.

{"Compound": "O=C(Nc1cccnn1)N1CCC(=Cc2cccc(Oc3ncc(-c4cccc(Cl)c4)cn3)c2)CC1 [Example 110]", "Assigned class": "Criterion met"}
{"Compound": "Cc1cccc(Oc2cccc(C=C3CCN(C(=O)Nc4cccnc4)CC3)c2)n1 [Example 40]", "Assigned class": "Criterion not met"}

QUERY: Reported kinact/KI reaches at least 900 M⁻¹ s⁻¹ for C#CCCCOc1ccc(Oc2cccc(C=C3CCN(C(=O)Nc4cccnc4)CC3)c2)nc1 [Example 89] ?
RESULT: Criterion met

QUERY: Reported kinact/KI reaches at least 900 M⁻¹ s⁻¹ for CCc1cc(Oc2cccc(C=C3CCN(C(=O)Nc4cccnn4)CC3)c2)nc(C(F)(F)F)n1 [Example 115] ?
RESULT: Criterion not met

QUERY: Reported kinact/KI reaches at least 900 M⁻¹ s⁻¹ for O=C(Nc1cccnc1)N1CCC(=C(c2ccccc2)c2cccc(Oc3ccc(C(F)(F)F)cn3)c2)CC1 [Example 68] ?
RESULT: Criterion not met

QUERY: Reported kinact/KI reaches at least 900 M⁻¹ s⁻¹ for CCc1ccnc(NC(=O)N2CCC(=Cc3cccc(Oc4ccc(C(F)(F)F)cn4)c3)CC2)c1 [Example 141] ?
RESULT: Criterion not met

QUERY: Reported kinact/KI reaches at least 900 M⁻¹ s⁻¹ for O=C(Nc1cccnc1)N1CCC(=Cc2cc(Br)cc(Oc3ccc(C(F)(F)F)cn3)c2)CC1 [Example 62] ?
RESULT: Criterion met

QUERY: Reported kinact/KI reaches at least 900 M⁻¹ s⁻¹ for O=C(Nc1cccnn1)N1CCC(=Cc2cccc(Oc3ccc(C(F)(F)F)cn3)c2)CC1 [Example 5] ?
RESULT: Criterion met

QUERY: Reported kinact/KI reaches at least 900 M⁻¹ s⁻¹ for Cc1cc(NC(=O)N2CCC(=Cc3cccc(Oc4ccc(C(F)(F)F)cn4)c3)CC2)n[nH]1 [Example 139] ?
RESULT: Criterion not met

====

Molecular target: Human FAAH (Homo sapiens, UniProt O00519)
Construct: made in house
Test: FAAH assay (glutamate dehydrogenase-coupled, oleamide substrate, absorbance at 340 nm)
Assay type: biochemical
Conditions: irreversible inhibition, 1-4 nM FAAH, pH 7.4, 30° C., 90 min, read-out: hFAAH kinact/Ki
Decide by kinact/KI: equal to or exceeding 2000 M⁻¹ s⁻¹ means Met, less means Not met.

Previously resolved entries follow.
{"Smiles input": "O=C(Nc1cccnn1)N1CCC(=Cc2cccc(Oc3ccc(C(=O)N4CCOCC4)cn3)c2)CC1", "Assigned class": "Not met"}
{"Smiles input": "Cn1ncc(NC(=O)N2CCC(=Cc3cccc(Oc4ccc(C(F)(F)F)cn4)c3)CC2)n1", "Assigned class": "Met"}
{"Smiles input": "CCCc1cnc(Oc2cccc(C=C3CCN(C(=O)Nc4cccnn4)CC3)c2)nc1", "Assigned class": "Met"}

QUERY: Reported kinact/KI reaches at least 2000 M⁻¹ s⁻¹ for Cc1cc(C=C2CCN(C(=O)Nc3cccnc3)CC2)cc(Oc2ccc(C(F)(F)F)cn2)c1 ?
RESULT: Met

====

Target: Human FAAH (Homo sapiens, UniProt O00519)
Construct: made in house
Test: FAAH assay (glutamate dehydrogenase-coupled, oleamide substrate, absorbance at 340 nm)
Type: biochemical
Conditions: irreversible inhibition, 1-4 nM FAAH, pH 7.4, 30° C., 90 min, read-out: hFAAH kinact/Ki
Structures can show the parent of a compound that is named as a salt.
Measurement label: kinact/KI (M⁻¹ s⁻¹)
Value expressed in M⁻¹ s⁻¹; do not type the unit.

Consider the worked cases shown below.
{"Compound": "O=C(Nc1cc(CO)ccn1)N1CCC(=Cc2cccc(Oc3ccc(C(F)(F)F)cn3)c2)CC1 [Example 83, trifluoroacetate]", "Quantitative result": 356}
{"Compound": "O=C(Nc1cccnc1)N1CCC(=Cc2cccc(Oc3ccc(OCC(F)(F)F)cn3)c2)CC1 [Example 49]", "Quantitative result": 6560}
{"Compound": "O=C(Nc1cccnc1)N1CCC(=Cc2cccc(Oc3ncc(Br)cn3)c2)CC1 [Example 36]", "Quantitative result": 5070}
{"Compound": "CCOc1ccc(Oc2cccc(C=C3CCN(C(=O)Nc4cccnc4)CC3)c2)nc1 [Example 47]", "Quantitative result": 4490}
{"Compound": "Cc1ccnc(NC(=O)N2CCC(=Cc3cccc(Oc4ccc(C(F)(F)F)cn4)c3)CC2)c1 [Example 135]", "Quantitative result": 173}

QUERY: Endpoint output: kinact/KI of Cc1nccnc1NC(=O)N1CCC(=Cc2cccc(Oc3ccc(C(F)(F)F)cn3)c2)CC1 [Example 24] . Value?
RESULT: 2410

====

Biological target: Human FAAH (Homo sapiens, UniProt O00519)
Construct: made in house
Test: FAAH assay (glutamate dehydrogenase-coupled, oleamide substrate, absorbance at 340 nm)
Assay type: biochemical
Conditions: irreversible inhibition, 1-4 nM FAAH, pH 7.4, 30° C., 90 min, read-out: hFAAH kinact/Ki
Recorded measurements of log10(kinact/KI), one per entry
Answers are given as log10 of kinact/KI in M⁻¹ s⁻¹.

Consider the worked cases shown below.
{"Smiles input": "O=C(Nc1cnccn1)N1CCC(=Cc2cccc(Oc3ccc(C(F)(F)F)cn3)c2)CC1", "Measurement label": "log10(kinact/KI)", "Quantitative result": 4.41}
{"Smiles input": "O=C(Nc1cnc(-c2ccccc2)cn1)N1CCC(=Cc2cccc(Oc3ccc(C(F)(F)F)cn3)c2)CC1", "Measurement label": "log10(kinact/KI)", "Quantitative result": 3.27}
{"Smiles input": "O=C(Nc1cccnn1)N1CCC(=Cc2cccc(Oc3ncccn3)c2)CC1", "Measurement label": "log10(kinact/KI)", "Quantitative result": 2.21}
{"Smiles input": "COc1cccc2cnc(Oc3cccc(C=C4CCN(C(=O)Nc5cccnn5)CC4)c3)nc12", "Measurement label": "log10(kinact/KI)", "Quantitative result": 2.32}

QUERY: Endpoint output: log10(kinact/KI) of COc1ccc(NC(=O)N2CCC(=Cc3cccc(Oc4ccc(C(F)(F)F)cn4)c3)CC2)cn1 . Value?
RESULT: 4.00

QUERY: Endpoint output: log10(kinact/KI) of O=C(Nc1cccnn1)N1CCC(=Cc2cccc(Oc3ccc(N4CCC4)cn3)c2)CC1 . Value?
RESULT: 3.26

QUERY: Endpoint output: log10(kinact/KI) of O=C(Nc1ccc(Br)nc1)N1CCC(=Cc2cccc(Oc3ccc(C(F)(F)F)cn3)c2)CC1 . Value?
RESULT: 3.79

QUERY: Endpoint output: log10(kinact/KI) of O=C(Nc1cccnn1)N1CCC(=Cc2cccc(Oc3ccc(Br)cn3)c2)CC1 . Value?
RESULT: 4.71
